IC50 overview
target-or-system: human PCSK9 (Homo sapiens, UniProt Q8NBP7)
Sequence (Q8NBP7 153-692): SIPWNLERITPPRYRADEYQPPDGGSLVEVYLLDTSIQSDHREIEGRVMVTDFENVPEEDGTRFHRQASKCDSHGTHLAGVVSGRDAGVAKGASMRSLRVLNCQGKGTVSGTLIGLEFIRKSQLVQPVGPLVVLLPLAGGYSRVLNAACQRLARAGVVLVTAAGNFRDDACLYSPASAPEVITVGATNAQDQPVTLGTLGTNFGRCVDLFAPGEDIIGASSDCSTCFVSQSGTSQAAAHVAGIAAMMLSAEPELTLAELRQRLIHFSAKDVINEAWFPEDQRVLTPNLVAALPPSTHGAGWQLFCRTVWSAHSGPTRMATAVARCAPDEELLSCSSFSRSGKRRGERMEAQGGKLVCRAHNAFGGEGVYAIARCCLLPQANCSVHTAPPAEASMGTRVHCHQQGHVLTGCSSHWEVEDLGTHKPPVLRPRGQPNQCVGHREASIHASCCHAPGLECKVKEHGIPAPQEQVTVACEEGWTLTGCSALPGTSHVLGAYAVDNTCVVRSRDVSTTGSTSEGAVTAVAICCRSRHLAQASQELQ
Sequence (Q8NBP7 31-152 partner limits assumed): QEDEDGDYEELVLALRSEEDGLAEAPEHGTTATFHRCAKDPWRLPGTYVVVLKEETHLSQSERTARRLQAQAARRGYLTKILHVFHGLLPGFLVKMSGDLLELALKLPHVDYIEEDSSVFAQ
method: PCSK9 ligand binding TR-FRET assay (interference with binding of human PCSK9 to human LDLR)
measurement-context: TR-FRET; human PCSK9 Alexa Fluor 647 / human LDLR extracellular domain-Europium Kryptate; read-out: PCSK9 FRET Assay IC50
value-kind: IC50 (nM)

COC[C@@H]1NC(=O)[C@H](C)N(Cc2ccc(Cl)cc2Oc2ccc(-c3cnc(CN(C)C)n3C)cc2)C(=O)C[C@@H](Cc2ccccc2)C(=O)N(C)[C@@H](C(=O)OC)CNC(=O)C[C@H](Cc2ccc(Cl)cc2)N(C)C1=O [Compound 71] : 12.9
COC[C@@H]1NC(=O)[C@H](C)N(Cc2c(OCC(F)(F)F)cc(Cl)cc2Oc2ccc(-c3cnc(CN(C)C)n3C)cc2)C(=O)CCC(=O)N(C)[C@H]2CCCC[C@@H]2NC(=O)C[C@H](Cc2ccc(Cl)cc2)N(C)C1=O [Compound 39] : 0.9
COC[C@@H]1NC(=O)[C@H](C)N(Cc2ccc(Cl)cc2Oc2ccc(-c3cnc(CN4CCCC4)n3C)cc2)C(=O)C[C@@H](Cc2ccc(F)cc2F)C(=O)N(C)[C@@H](C)CNC(=O)C[C@H](Cc2ccc(Cl)cc2)N(C)C1=O [Compound 22] : 1.1
COC[C@@H]1NC(=O)[C@H](C)N(Cc2ccc(Cl)cc2Oc2ccc(-c3ccc(C(=O)NC4CCNCC4)nc3)cc2)C(=O)C[C@@H](Cc2ccccc2)C(=O)N(C)[C@@H](C)CNC(=O)C[C@H](Cc2ccc(Cl)cc2)N(C)C1=O.O=C(O)C(F)(F)F [Compound 122, trifluoroacetate] : 8.7
C[C@H]1CNC(=O)C[C@H](Cc2ccc(Cl)cc2)N(C)C(=O)[C@H](CO)NC(=O)[C@H](C)N(Cc2ccc(Cl)cc2Oc2ccc3c(c2)C(=O)N(C2CCNCC2)C3)C(=O)C[C@@H](Cc2ccccc2)C(=O)N1C [Compound 125] : 28
COC[C@@H]1NC(=O)[C@H](C)N(Cc2ccc(Cl)cc2Oc2ccc(-c3cnc(C(C)O)n3C)cc2)C(=O)C[C@@H](Cc2ccccc2)C(=O)N(C)[C@H]2CCCC[C@@H]2NC(=O)C[C@H](Cc2ccc(Cl)cc2)N(C)C1=O (some centres unmarked) [Compound 242] : 1.3
COC[C@@H]1NC(=O)[C@H](CCCN2CCOCC2)N(Cc2ccc(Cl)cc2Oc2ccc(-c3cnc(CN(C)C)n3C)cc2)C(=O)C[C@@H](Cc2ccccc2)C(=O)N(C)[C@@H](C)CNC(=O)C[C@H](Cc2ccc(Cl)cc2)N(C)C1=O [Compound 158] : 1.4
COC[C@@H]1NC(=O)[C@H](C)N(Cc2c[nH]c(=O)cc2Oc2ccc(-c3cnc(CN(C)C)n3C)cc2)C(=O)C[C@@H](Cc2ccccc2)C(=O)N(C)[C@@H](C)CNC(=O)C[C@H](Cc2ccc(Cl)cc2)N(C)C1=O [Compound 168] : 67.7

###

target-or-system: human PCSK9 (Homo sapiens, UniProt Q8NBP7)
method: PCSK9 ligand binding TR-FRET assay (interference with binding of human PCSK9 to human LDLR)
measurement-context: PCSK9 FRET assay, efficacy (Amax); 100% = 1 uM unlabeled human PCSK9, 0% = DMSO
Max % inhibition overview
value-kind: Max % inhibition (%)

CCC[C@@H]1CC(=O)N(Cc2ccc(Cl)cc2Oc2ccc(-c3cnc(CN(C)C)n3C)cc2)[C@@H](C)C(=O)N[C@@H](COC)C(=O)N(C)[C@@H](Cc2ccc(Cl)cc2)CC(=O)N[C@H]2CCCC[C@@H]2N(C)C1=O : 76.79
C=CC[C@@H]1CC(=O)N(Cc2ccc(Cl)cc2Oc2ccc(-c3cnc(CN(C)C)n3C)cc2)[C@@H](C)C(=O)N[C@@H](COC)C(=O)N(C)[C@@H](Cc2ccc(Cl)cc2)CC(=O)N[C@H]2CCCC[C@@H]2N(C)C1=O : 99.22
COC[C@@H]1NC(=O)[C@H](C)N(Cc2ccc(Cl)cc2Oc2ccc(-c3cnc(CN(C)C)n3C)cc2)C(=O)C[C@@H](CC#N)C(=O)N(C)[C@H]2CCCC[C@@H]2NC(=O)C[C@H](Cc2ccc(Cl)cc2)N(C)C1=O : 85.89
COC[C@@H]1NC(=O)[C@H](C)N(Cc2ccc(Cl)cc2Oc2ccc(-c3cnc(CN(C)C)n3C)cc2)C(=O)C[C@@H](Cc2cc(F)cc(F)c2F)C(=O)N(C)[C@@H](C)CNC(=O)C[C@H](Cc2ccc(Cl)cc2)N(C)C1=O : 98.16

###

Max % inhibition overview
target-or-system: human PCSK9 (Homo sapiens, UniProt Q8NBP7)
method: PCSK9 ligand binding TR-FRET assay (interference with binding of human PCSK9 to human LDLR)
measurement-context: PCSK9 FRET assay, efficacy (Amax); 100% = 1 uM unlabeled human PCSK9, 0% = DMSO
value-kind: Max % inhibition (%)

COC[C@@H]1NC(=O)[C@@H](CCN(C)C)N(Cc2ccc(Cl)cc2Oc2ccc(-c3cnc(CN(C)C)n3C)cc2)C(=O)C[C@@H](Cc2ccccn2)C(=O)N(C)[C@H]2CCCC[C@@H]2NC(=O)C[C@H](Cc2ccc(Cl)cc2)N(C)C1=O [Compound 91] : 86.95
COC[C@@H]1NC(=O)[C@H](C)N(Cc2ccc(Cl)cc2Oc2ccc(-c3cnc(CN(C)C)n3C)cc2)C(=O)C[C@@H](Cc2c(F)c(F)cc(F)c2F)C(=O)N(C)[C@@H](C)CNC(=O)C[C@H](Cc2ccc(Cl)cc2)N(C)C1=O [Compound 246] : 103.97
COC[C@@H]1NC(=O)[C@H](CC(=O)OC(C)(C)C)N(Cc2ccc(Cl)cc2Oc2ccc(-c3cnc(CN(C)C)n3C)cc2)C(=O)C[C@@H](Cc2ccccc2)C(=O)N(C)[C@@H](C)CNC(=O)C[C@H](Cc2ccc(Cl)cc2)N(C)C1=O [Compound 174] : 102.02
COC[C@@H]1NC(=O)[C@H](C)N(Cc2ccc(Cl)cc2Oc2ccc(-c3cnc(CN(C)C)n3C)cc2)C(=O)C[C@@H](C)C(=O)N(C)[C@H]2CCCC[C@@H]2NC(=O)C[C@H](Cc2ccc(Cl)cc2)N(C)C1=O [Compound 64] : 79.08

###

IC50 overview
target-or-system: human PCSK9 (Homo sapiens, UniProt Q8NBP7)
method: PCSK9 ligand binding TR-FRET assay (interference with binding of human PCSK9 to human LDLR)
measurement-context: TR-FRET; human PCSK9 Alexa Fluor 647 / human LDLR extracellular domain-Europium Kryptate; read-out: PCSK9 FRET Assay IC50
value-kind: IC50 (nM)

COC[C@@H]1NC(=O)[C@H](CCC(=O)N2CC3(COC3)C2)N(Cc2ccc(Cl)cc2Oc2ccc(-c3cnc(CN(C)C)n3C)cc2)C(=O)C[C@@H](Cc2ccccc2)C(=O)N(C)[C@@H](C)CNC(=O)C[C@H](Cc2ccc(Cl)cc2)N(C)C1=O [Compound 95] : 0.8
COC[C@@H]1NC(=O)[C@H](C)N(Cc2ccc(Cl)cc2Oc2ccc(-c3cnc4n3CCN(C(=O)C3CCNC3)C4)cc2)C(=O)C[C@@H](Cc2ccccc2)C(=O)N(C)[C@@H](C)CNC(=O)C[C@H](Cc2ccc(Cl)cc2)N(C)C1=O.O=C(O)C(F)(F)F (some centres unmarked) [Compound 124, trifluoroacetate] : 3.8

###

target-or-system: human PCSK9 (Homo sapiens)
method: PCSK9 ligand binding TR-FRET assay (interference with binding of human PCSK9 to human LDLR)
measurement-context: TR-FRET; human PCSK9 Alexa Fluor 647 / human LDLR extracellular domain-Europium Kryptate; read-out: PCSK9 FRET Assay IC50
pIC50: −log10 of the molar value.
value-kind: pIC50

COC[C@@H]1NC(=O)[C@H](C)N(Cc2ccc(Cl)cc2Oc2ccc(-c3cnc(CN(C)C)n3C)cc2)C(=O)C[C@@H](Cc2ccccc2)C(=O)N(C)[C@H]2CCCC[C@@H]2NC(=O)C[C@H](Cc2ccc(Cl)cc2)N(C)C1=O : 8.96
COC[C@@H]1NC(=O)[C@H](CCC(=O)N2CCOCC2)N(Cc2ccc(Cl)cc2Oc2ccc(-c3cnc(CN(C)C)n3C)cc2)C(=O)C[C@@H](Cc2ccccc2)C(=O)N(C)[C@@H](C)CNC(=O)C[C@H](Cc2ccc(Cl)cc2)N(C)C1=O : 8.24
COC[C@@H]1NC(=O)[C@H](C)N(Cc2ccc(Cl)cc2Oc2ccc(-c3cnc(CN4CCCC4)n3C)cc2)C(=O)C[C@@H](Cc2ccccc2)C(=O)N(C)[C@@H](CCCCN(C)C)CNC(=O)C[C@H](Cc2ccc(Cl)cc2)N(C)C1=O.Cl [Compound 43, hydrochloride] : 8.74
CNCC[C@H]1C(=O)N[C@@H](COC)C(=O)N(C)[C@@H](Cc2ccc(Cl)cc2)CC(=O)N[C@H]2CCCC[C@@H]2N(C)C(=O)[C@H](Cc2ccccc2)CC(=O)N1Cc1ccc(Cl)cc1Oc1ccc(-c2cnc(CN(C)C)n2C)cc1 : 8.89
